So I've got a bunch of compounds here, and I need their TGI values.
# Tested on: SK-MEL-2 melanoma
# test: NCI tumour cell line growth inhibition, 48 h
Give bare numbers, in µM.

Take a look at these entries with their results.
NCCSc1nc2ccccc2s1 | 82.2
OC(c1cccc(-n2ccc(C(F)(F)F)n2)c1)c1cnccc1NC1CCCCCC1 (stereo unspecified) | 3.82
Nc1ccc2c(c1)C(=O)C(=O)c1c-2nc2ccccn12 | 3.7
O=C[C@@H](CO)O[C@H](C=O)c1c[nH]c(=O)[nH]c1=O | 3680

Then this compound:
[in] Suppose we examine the compound `COc1ccc2nc3cc(Cl)ccc3c(NCCCN(Cc3cc(OC)c(OC)c(OC)c3)Cc3cc(OC)c(OC)c(OC)c3)c2c1` ; what TGI value has been reported?
[out] 72.1
